target: UniProtKB Q96EB6; test: Activation of human recombinant SIRT1 at 10 uM preincubated for 60 mins prior to substrate addition measured after 60 mins by fluorescence assay
Sequence (Q96EB6 whole entry): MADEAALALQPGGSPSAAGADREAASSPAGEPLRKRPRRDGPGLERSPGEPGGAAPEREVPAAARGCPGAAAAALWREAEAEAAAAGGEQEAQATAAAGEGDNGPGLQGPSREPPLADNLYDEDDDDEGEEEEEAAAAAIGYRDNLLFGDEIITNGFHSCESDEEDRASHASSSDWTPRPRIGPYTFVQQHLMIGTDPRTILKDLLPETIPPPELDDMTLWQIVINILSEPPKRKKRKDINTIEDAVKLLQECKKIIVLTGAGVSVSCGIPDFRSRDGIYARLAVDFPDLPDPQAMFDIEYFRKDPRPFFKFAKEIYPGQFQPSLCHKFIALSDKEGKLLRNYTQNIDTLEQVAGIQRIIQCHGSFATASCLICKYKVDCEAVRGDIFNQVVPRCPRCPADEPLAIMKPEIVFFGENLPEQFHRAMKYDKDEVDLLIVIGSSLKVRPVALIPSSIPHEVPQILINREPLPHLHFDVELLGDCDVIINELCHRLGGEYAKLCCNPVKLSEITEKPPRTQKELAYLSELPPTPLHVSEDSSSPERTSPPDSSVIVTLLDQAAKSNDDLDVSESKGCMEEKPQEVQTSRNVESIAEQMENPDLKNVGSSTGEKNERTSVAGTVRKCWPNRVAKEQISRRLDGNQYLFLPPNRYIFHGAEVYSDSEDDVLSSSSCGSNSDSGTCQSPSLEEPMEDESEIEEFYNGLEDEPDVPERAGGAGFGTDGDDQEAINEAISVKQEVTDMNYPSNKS
Active and inactive are the calls of the source. The rule behind the calls is not given here.
outcome-measure: Activity

{"smiles-str": "O=C(Nc1cccc(-c2cn3c(CN4CCOCC4)csc3n2)c1)c1cnc2ccccc2n1", "measured-result": "inactive"}
{"smiles-str": "O=C(Nc1cccc(-c2cn3c(CN4CCNCC4)csc3n2)c1)c1ccnc2ccccc12", "measured-result": "inactive"}
{"smiles-str": "COCc1csc2nc(-c3ccccc3NC(=O)c3cnc4ccccc4n3)cn12", "measured-result": "inactive"}
{"smiles-str": "O=C(Nc1ccccc1-c1cn2c(CN3CCNCC3)csc2n1)c1cccc2ccccc12", "measured-result": "inactive"}
{"smiles-str": "O=C(Nc1cccc(-c2cn3c(CN4CCNCC4)csc3n2)c1)c1ccc2ccccc2n1", "measured-result": "140%"}

[ask] # query: Activity | item O=C(Nc1cccc(-c2cn3c(CN4CCNCC4)csc3n2)c1)c1cnc2ccccc2c1 | system: UniProtKB Q96EB6
[reply] 140%

[ask] # query: Activity | item O=C(Nc1cccc(-c2cn3c(CN4CCCCC4)csc3n2)c1)c1cnc2ccccc2n1 | system: UniProtKB Q96EB6
[reply] inactive

[ask] # query: Activity | item COCCOCOCc1csc2nc(-c3ccccc3NC(=O)c3cnc4ccccc4n3)cn12 | system: UniProtKB Q96EB6
[reply] inactive

[ask] # query: Activity | item O=C(Nc1ccccc1-c1cn2c(CN3CCNCC3)csc2n1)c1ccnc2ccccc12 | system: UniProtKB Q96EB6
[reply] inactive
